- Protocol: Kinetic solubility of the compound in phosphate buffered saline at pH 7.4 after 2 hrs by HPLC analysis
- Type: physicochemical
- Stated Conditions: read-out: Kinetic_solubility
Provide the recorded log10(solubility kinetic at 2 h) for the entries that follow.
Scale type: logarithmic (base 10). Underlying solubility kinetic at 2 h unit: µM.

### Prompt Give the measured log10(solubility kinetic at 2 h) of CC(C)(C)n1nnnc1C(NCCNc1ccnc2cc(Cl)ccc12)c1ccc(Cl)c(Cl)c1 (stereo unspecified) .
### Response 1.40

### Prompt Request: Cc1ccc(C(NCCNc2ccnc3cc(Cl)ccc23)c2nnnn2C(C)(C)C)cc1 (stereo unspecified)
### Response 1.60

### Prompt Try CC(C)(C)n1nnnc1C(NCCNc1ccnc2cc(Cl)ccc12)c1ccccc1 (stereo unspecified) next.
### Response 2.05

### Prompt Then this molecule: CC(C)(C)n1nnnc1C(NCCNc1ccnc2cc(Cl)ccc12)c1ccc(Cl)cc1 (stereo unspecified)
### Response 0.84

### Prompt Param item: Clc1ccc2c(NCCNC(c3ccc(Cl)c(Cl)c3)c3nnn[nH]3)ccnc2c1 (stereo unspecified)
### Response 1.85

### Prompt Field entry: Clc1ccc(C(NCCNc2ccnc3cc(Cl)ccc23)c2nnn[nH]2)cc1 (stereo unspecified)
### Response 2.21
